System: MDA-MB-231 cells
Assay: Standalone cytotoxicity, MTT assay, MDA-MB-231
Assay type: cell-based
Conditions: Homo sapiens; MDA-MB-231, 96 hours, MTT; read-out: IC80 (μM ± standard Deviation)
In this section we review reported IC80 values for a set of compounds.
# value in µM; strip the unit string

# count of solved cases: 2
COMPOUND	SCALE UNIT	ASSAY VALUE
CC[C@H](N)C(=O)N[C@@H]1C(=O)N2[C@@H](CC[C@@H]1Cn1cc(CO[C@H](C)[C@H](NC(=O)[C@H](C)NC)C(=O)N3CCC[C@H]3Cn3nnnc3Sc3ccccc3)nn1)CC[C@H]2C(=O)NC(c1ccccc1)c1ccccc1 [Compound 44a]	µM	0.288
CC[C@H](N)C(=O)N[C@@H]1C(=O)N2[C@@H](CC[C@@H]1CO)CC[C@H]2C(=O)NC(c1ccccc1)c1ccccc1 [Compound 24a]	µM	3.9

In: Name the recorded IC80 of the item CC[C@H](NC)C(=O)N[C@@H]1C(=O)N2[C@@H](CC[C@@H]1CO)CC[C@H]2C(=O)NC(c1ccccc1)c1ccccc1 [Compound 24g] in your answer.
Out: 0.87
